Molecular target: T1, recombinant cynomolgus/Rhesus TROP2 full-length extracellular domain (cynomolgus/Rhesus, UniProt P09758 27-274 (human entry))
T1 construct: also called cynomolgus TROP2
T1 chain: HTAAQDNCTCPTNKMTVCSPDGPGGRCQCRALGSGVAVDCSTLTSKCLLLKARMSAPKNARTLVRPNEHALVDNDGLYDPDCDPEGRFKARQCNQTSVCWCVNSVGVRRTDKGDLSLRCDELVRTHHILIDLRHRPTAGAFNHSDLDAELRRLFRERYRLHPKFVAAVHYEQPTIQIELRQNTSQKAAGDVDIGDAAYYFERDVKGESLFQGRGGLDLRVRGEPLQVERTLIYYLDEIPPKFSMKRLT
Experiment: SPR
Each item that follows carries a reported Kd.
Answer with a number only, understood to be in nM.

Example entries and their recorded answers appear below.
* KD001 (antibody, human IgG1, V domains shown, also called anti-TROP2 sdAb KD001) VH: QVQLQESGGGMVHPGGSLRLSCAASGFTFSGSDMSWVRQAPGKGPEWVSYITSGGTTYYPDSVKGRFTISRDNAKNTLYLQMNSLTPDDTALYRCAKARLTDSHYVEDAWGQGTQVTVSS | 0.0257
* KD003 (antibody, human IgG1, V domains shown, also called anti-TROP2 sdAb KD003) VH: QVQLQESGGGMVQPGGSLRLSCAASGFTFSNYDMSWVRQAPGKGPEWVSYINAGGSNTDYPDSVKGRFTISRDNAKNMLYLLMNNLKPEDTALYRCARAKLTDTHYVEDYWGQGTQVTVSS | 0.169
* KD002 (antibody, human IgG1, V domains shown, also called anti-TROP2 sdAb KD002) VH: QVQLQESGGGMVQVGGSLRLSCAASGFPFSSADMSWVRQAPGKGPEWVSYINADGSKTYYPDSVKGRFTISRDNAKNTLYLLMNNLKPEDTALYRCARAKLTDTHYVEDYWGQGTQVTVSS | 0.0811
* KD004 (antibody, human IgG1, V domains shown, also called anti-TROP2 sdAb KD004) VH: QVQLQESGGGLVQPGRSLRLSCAASGFTFSGSDMSWVRQAPGKGPEWVSYITGSGTTYYPDSVKGRFTTSRDNAKNMLYLQMNSLKPDDTALYRCAKARLTDSHYVEDAWGQGTQVTVSS | 0.0358

// below: Kd requested for another binder
# get_value(readout='Kd', item= KD005 (antibody, human IgG1, V domains shown, also called anti-TROP2 sdAb KD005) VH: QVQLQESGGGLVEAGGSLRLSCAASGFTFSGSDMSWVRQAPGKGPEWVSYITSGGTTYYPDSVKGRFTISRDNAKNTLYLQMNSLKPDDTALYRCAKSRLTDSHYVEDAWGQGTQVTVSS )
0.0597
